Ref: paper PMC3479139

target: APE1 (Homo sapiens); construct: made in house; experiment: Fluorogenic kinetic qHTS APE1 incision assay (primary screen and retest of cherrypicked samples); assay type: biochemical; conditions: initial quantitative high-throughput screen; read-out: APE1 qHTS IC50;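 further: purified APE1 cleaving a fluorophore/dark-quencher labelled 17-mer duplex DNA bearing a tetrahydrofuran AP site, fluorescence rise followed kinetically over the first 2 min, inhibition normalized to controls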
Sequence (P27695 whole entry): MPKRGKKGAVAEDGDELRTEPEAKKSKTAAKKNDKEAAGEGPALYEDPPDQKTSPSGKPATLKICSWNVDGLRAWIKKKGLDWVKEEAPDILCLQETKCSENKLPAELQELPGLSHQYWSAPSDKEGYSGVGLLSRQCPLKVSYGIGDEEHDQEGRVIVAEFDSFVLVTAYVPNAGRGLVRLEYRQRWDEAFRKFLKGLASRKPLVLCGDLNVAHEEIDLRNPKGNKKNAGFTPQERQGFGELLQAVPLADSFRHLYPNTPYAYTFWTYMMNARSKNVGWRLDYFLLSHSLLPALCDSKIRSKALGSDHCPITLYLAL
pIC50: −log10 of the molar value.
Class Criterion met: pIC50 at least 5. Class Criterion not met: pIC50 below 5.

compound=CCN(CC(=O)Nc1c(F)cccc1F)C(=O)/C=C/c1ccc2ccccc2n1 class="Criterion met"
compound="CC1=C(C(=O)OC(C)C)C(c2ccc(Cl)cc2)n2c(s/c(=C\\c3ccc(OCC(=O)O)cc3)c2=O)=N1 (centres unmarked)" class="Criterion met"
compound=O=C(CCc1n[nH]c(=O)[nH]c1=O)N/N=C/c1ccco1 class="Criterion not met"
compound="NC(Cc1ccc(O)c(O)c1)C(=O)O (centres unmarked)" class="Criterion met"
compound=Cc1cccc(C)c1NC(=O)CSc1nnc(-c2ccco2)c(-c2ccco2)n1 class="Criterion not met"
compound=CCOC(=O)c1cc(-c2ccc(N3CCOCC3)cc2)nn1-c1ccccc1C(=O)O class="Criterion met"
compound="CC(C)C(C(=O)O)N1C(=O)/C(=C/C=C/c2ccco2)SC1=S (centres unmarked)" class="Criterion met"
compound=CC1(CC(=O)N/N=C/c2cc([N+](=O)[O-])c(O)cc2O)OCCO1 class="Criterion not met"
compound=CC(=O)[C@]1(O)Cc2c(O)c3c(c(O)c2[C@@H](O[C@H]2C[C@H](N)[C@H](O)[C@H](C)O2)C1)C(=O)c1ccccc1C3=O class="Criterion not met"
